Data credit: patent US20230287510A1

Tested on: chronic lymphocytic leukemia (CLL) samples classified by expression subtype (Ec-i, EC-m1, EC-m2, EC-m3, EC-m4, EC-o, EC-u1, EC-u2)
Test: Ex-vivo drug sensitivity (percent viability) of CLL samples compared between expression subtypes (ECs); also: test concentration or dose not given here
Assay type: cell-based
Details: expression cluster EC-u1
*1 amine or outer side, *2 acyl side, *3 side chain or, on linkers, in order; H or OH if unused. Where a SMILES comes first, the peptide text is derived from it. Bridges are numbered along the chain shown (N, C = ends). Roman numbers before positions name the chains, in order. [ ]: non-standard residue; d: D form. Actinocin(9to1) = Cc1c2oc3c(C)ccc(C(=O)[*:1])c3nc-2c(C(=O)[*:2])c(N)c1=O; NMeV = CN[C@H](C(=O)O)C(C)C; Sar = CNCC(=O)O
Quantity Measured: Mean viability in the EC
# print the numeric value only

Exercise: What does the data say about its Mean viability in the EC? Entry: NC(=O)Nc1cc(-c2cccc(F)c2)sc1C(=O)N[C@H]1CCCNC1 [AZD7762]
Solution: 0.74

Exercise: // repeat for CC1(C)CCC(c2ccc(Cl)cc2)=C(CN2CCN(c3ccc(C(=O)NS(=O)(=O)c4ccc(N[C@H](CCN5CCOCC5)CSc5ccccc5)c(S(=O)(=O)C(F)(F)F)c4)cc3)CC2)C1 [navitoclax] and report
Solution: 0.89

Exercise: // repeat for O=C(Nc1cccc(Nc2ncc(Br)c(NCCc3cnc[nH]3)n2)c1)N1CCCC1 [BX912] and report
Solution: 1.05

Exercise: // repeat for Cc1c2oc3c(C)ccc(C(=O)N[C@@H]4C(=O)N[C@H](C(C)C)C(=O)N5CCC[C@H]5C(=O)N(C)CC(=O)N(C)[C@@H](C(C)C)C(=O)O[C@@H]4C)c3nc-2c(C(=O)N[C@@H]2C(=O)N[C@H](C(C)C)C(=O)N3CCC[C@H]3C(=O)N(C)CC(=O)N(C)[C@@H](C(C)C)C(=O)O[C@@H]2C)c(N)c1=O [actinomycin D] (I: T[dV]P[Sar][NMeV] / II: T[dV]P[Sar][NMeV]; ester I:1-I:C, II:1-II:C; linker I:N-II:N via Actinocin(9to1)) and report
Solution: 0.37

Exercise: // repeat for CC(C)c1cc(C(=O)N2Cc3ccc(CN4CCN(C)CC4)cc3C2)c(O)cc1O [AT13387] and report
Solution: 0.68

Exercise: // repeat for O=C(Cc1ccc(-c2ccc(OCCN3CCOCC3)cc2)cn1)NCc1ccccc1 [KX2-391] and report
Solution: 0.86

Exercise: // repeat for Cn1cnc2c(F)c(Nc3ccc(Br)cc3Cl)c(C(=O)NOCCO)cc21 [selumetinib] and report
Solution: 0.91

Exercise: // repeat for C=CCn1c(=O)c2cnc(Nc3ccc(N4CCN(C)CC4)cc3)nc2n1-c1cccc(C(C)(C)O)n1 [MK-1775] and report
Solution: 0.98

Exercise: // repeat for C[C@H](Nc1ncnc2[nH]cnc12)c1cc2cccc(Cl)c2c(=O)n1-c1ccccc1 [duvelisib] and report
Solution: 0.85

Exercise: // repeat for C=CC(=O)Nc1cccc(Nc2nc(Nc3ccc(OCCOC)cc3)ncc2F)c1 [spebrutinib] and report
Solution: 0.92

Exercise: // repeat for CC[C@H](Nc1ncnc2nc[nH]c12)c1nc2cccc(F)c2c(=O)n1-c1ccccc1 [idelalisib] and report
Solution: 0.90

Exercise: // repeat for CN1CCC(CNc2ccc3ncc(-c4cccc(OC(F)(F)F)c4)n3n2)CC1 [SGI-1776] and report
Solution: 1.01

Exercise: // repeat for COc1cc(Nc2ncc(F)c(Nc3ccc4c(n3)NC(=O)C(C)(C)O4)n2)cc(OC)c1OC [tamatinib] and report
Solution: 1.00

Exercise: // repeat for COCCn1c2c([n+](Cc3cnccn3)c1C)C(=O)c1ccccc1C2=O [YM155] and report
Solution: 0.53

Exercise: // repeat for CC1(C)CCC(CN2CCN(c3ccc(C(=O)NS(=O)(=O)c4ccc(NCC5CCOCC5)c([N+](=O)[O-])c4)c(Oc4cnc5[nH]ccc5c4)c3)CC2)=C(c2ccc(Cl)cc2)C1 [venetoclax] and report
Solution: 0.54

Exercise: // repeat for COc1cc(N2CCC(N3CCN(C)CC3)CC2)ccc1Nc1ncc(Cl)c(Nc2ccccc2S(=O)(=O)C(C)C)n1 [TAE684] and report
Solution: 0.98

Exercise: // repeat for NC1(c2ccc(-c3nc4ccn5c(=O)[nH]nc5c4cc3-c3ccccc3)cc2)CCC1 [MK-2206] and report
Solution: 0.98

Exercise: // repeat for CO[C@H]1C[C@@H]2CC[C@@H](C)[C@@](O)(O2)C(=O)C(=O)N2CCCC[C@H]2C(=O)O[C@H]([C@H](C)C[C@@H]2CC[C@@H](OCCO)[C@H](OC)C2)CC(=O)[C@H](C)/C=C(\C)[C@@H](O)[C@@H](OC)C(=O)[C@H](C)C[C@H](C)/C=C/C=C/C=C/1C [everolimus] and report
Solution: 0.99
